Target: Mitogen-activated protein kinase 10 (Homo sapiens)
Sequence (P53779 whole entry): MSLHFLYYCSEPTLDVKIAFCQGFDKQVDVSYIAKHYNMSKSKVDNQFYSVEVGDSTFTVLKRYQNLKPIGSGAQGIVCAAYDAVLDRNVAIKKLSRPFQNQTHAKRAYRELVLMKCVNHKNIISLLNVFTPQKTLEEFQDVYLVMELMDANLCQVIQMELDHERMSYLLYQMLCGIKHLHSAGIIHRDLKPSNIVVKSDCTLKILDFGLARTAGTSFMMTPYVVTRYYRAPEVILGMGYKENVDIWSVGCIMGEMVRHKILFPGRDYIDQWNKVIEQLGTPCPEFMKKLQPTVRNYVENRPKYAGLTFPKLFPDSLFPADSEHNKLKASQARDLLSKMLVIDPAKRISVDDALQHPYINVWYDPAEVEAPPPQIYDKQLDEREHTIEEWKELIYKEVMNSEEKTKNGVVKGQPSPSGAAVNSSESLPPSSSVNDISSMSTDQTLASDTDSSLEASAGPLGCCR
Test: Inhibition of JNK3
measuredQuantity: IC50 (nM)
Field format: number, assumed nM, no unit text.

*Q* Given the compound CCOc1nc(C(=O)NCc2ccc(S(C)(=O)=O)cc2)cc(N)c1Cl , write its reported IC50.
*A* 120
